- Measured on: human lung tryptase
- Measurement description: β-Tryptase In-Vitro Enzyme Assay
- Test context: human lung tryptase 1 nM, substrate H-D-HHT-Ala-Arg-pNa 500 μM, pH 7.4, room temperature
# pIC50 annotations
# log scale: pIC50 equals minus log10 of the concentration in mol/L

Below are worked cases with known answers.
[[record]]
molecule = "NCc1ccc2c(c1)C1(CCN(C(=O)c3ccc(COc4ccccc4Br)o3)CC1)CO2"
metric = "pIC50"
reported_measurement = 6.62

[[record]]
molecule = "CS(=O)(=O)c1ccc(C(=O)N2CCC3(CC2)COc2ccc(CN)cc23)s1"
metric = "pIC50"
reported_measurement = 5.80

[[record]]
molecule = "NCc1ccc2c(c1)C1(CCN(C(=O)C#Cc3ccccc3)CC1)CO2 [Cpd 296]"
metric = "pIC50"
reported_measurement = 6.68

[[record]]
molecule = "NCc1ccc2c(c1)C1(CCN(C(=O)c3cccc(Sc4ncc(Cl)cn4)c3)CC1)CO2"
metric = "pIC50"
reported_measurement = 6.29


Turning to the following molecule.
Looking for the measured pIC50 of Cn1c(C(=O)N2CCC3(CC2)COc2ccc(CN)cc23)cc2ccccc21 , can you help? 6.44

###

- Measured on: human lung tryptase
- Measurement description: β-Tryptase In-Vitro Enzyme Assay
- Test context: human lung tryptase 1 nM, substrate H-D-HHT-Ala-Arg-pNa 500 μM, pH 7.4, room temperature
Metric: IC50 (nM)
Write the number in nM without appending the unit.

For orientation, consider the following solved cases.
[[record]]
molecule = "NCc1ccc2c(c1)C1(CCN(C(=O)c3ccc4ccccc4c3)CC1)CO2 [Cpd 70]"
metric = "IC50"
reported_measurement = 150

[[record]]
molecule = "Cn1cc(C(=O)N2CCC3(CC2)COc2ccc(CN)cc23)c2ccccc21 [Cpd 237]"
metric = "IC50"
reported_measurement = 270

[[record]]
molecule = "NCc1ccc2c(c1)C1(CCN(C(=O)Cc3cccc(Oc4ccccc4)c3)CC1)CO2 [Cpd 88]"
metric = "IC50"
reported_measurement = 26


I'd like to know its IC50. The molecule in question is NCc1ccc2c(c1)C1(CCN(C(=O)Cc3cccc(F)c3)CC1)CO2 [Cpd 80] 2700

Requested read-out: IC50. Entry: NCc1ccc2c(c1)C1(CCN(C(=O)c3ccc(CSc4ccc(C(F)(F)F)cn4)o3)CC1)CO2 [Cpd 151] 180

###

- Measured on: human lung tryptase
- Measurement description: β-Tryptase In-Vitro Enzyme Assay
- Test context: human lung tryptase 1 nM, substrate H-D-HHT-Ala-Arg-pNa 500 μM, pH 7.4, room temperature
- Protocol: The β-tryptase assay was conducted with human lung tryptase (Cortex Biochem #CP3033) in an aqueous buffer (10 mM Tris, 10 mM Hepes, 150 mM NaCl, 0.1% PEG 8000, pH 7.4) using the chromogenic substrate H-D-HHT-Ala-Arg-pNa. […] Percent inhibition was calculated by comparing the initial reaction velocity of samples without inhibitor to those with inhibitor. The initial reaction velocities were analyzed using Microsoft Excel.
Reported IC50 is given for each of the following compounds.

[[record]]
mol = "COc1ccc(-c2ccc(C(=O)N3CCC4(CC3)COc3ccc(CN)cc34)o2)cc1"
reported_measurement = "26 nM"


Entry NCc1ccc2c(c1)C1(CCN(C(=O)c3ccc(CSCc4ccccc4)o3)CC1)CO2 : reported IC50 = ? 66 nM

Field request: IC50 | item: NCc1ccc2c(c1)C1(CCN(C(=O)/C=C/c3ccncc3)CC1)CO2 2500 nM

Find the recorded IC50 belonging to NCc1ccc2c(c1)C1(CCN(C(=O)c3ccc(C#Cc4ccccc4)o3)CC1)CN2CCP(=O)(O)O and report it. 470 nM
